system: Bacillus amyloliquefaciens; assay: Antibacterial activity against Bacillus amyloliquefaciens GDMCC 60233 assessed as reduction in microbial growth after 12 hrs by microbroth dilution method; type: functional

chemical-smiles	measured-on	MIC
CN[C@@H]1[C@@H](O)[C@@H](O[C@@H]2[C@@H](O)[C@H](O[C@H]3O[C@H](CN)CC[C@H]3N)[C@@H](N)C[C@H]2N)OC[C@]1(C)O.O=S(=O)(O)O	Bacillus amyloliquefaciens	1 µg/mL
CO[C@@H]1C2Cc3ccc(cc3)O[C@H]3[C@@H]4[C@H]5C(=O)[C@@]1(C[C@@H](O)[C@@]5(C)C=C(C)[C@H]4[C@]1(C)C[C@H](C)C[C@H](C)[C@@H]31)C(=O)N2	Bacillus amyloliquefaciens	20 µg/mL
C=C[C@@]1(C)C=C(C)[C@@H]2[C@@H]3[C@H](Oc4ccc(cc4)C[C@@H]4C(=O)NC(=O)[C@@H]4C(=O)[C@H]31)[C@@H]1[C@@H](C)C[C@@H](C)C[C@]12C	Bacillus amyloliquefaciens	50 µg/mL
CC(=O)[C@@H]1[C@@H]2[C@H](Oc3ccc(cc3)C[C@]3(O)C[C@]4(C[C@@H](O)[C@](C)(C=O)[C@@H]2C4=O)C(=O)N3)[C@@H]2[C@@H](C)C[C@@H](C)C[C@]21C	Bacillus amyloliquefaciens	100 µg/mL
CO[C@@]12Cc3ccc(cc3)O[C@H]3[C@H]([C@H]4C(=O)[C@](C[C@@H](O)[C@]4(C)C=O)(C1)C(=O)N2)[C@@H](C(C)=O)[C@]1(C)C[C@H](C)C[C@H](C)[C@@H]31	Bacillus amyloliquefaciens	100 µg/mL

* * *

tested on: Staphylococcus aureus; experiment: Antibacterial activity against methicillin-resistant Staphylococcus aureus assessed as reduction in microbial growth after 12 hrs by microbroth dilution method; format: functional
reported-endpoint: MIC (µg/mL)

chemical-smiles	measured-on	reported-endpoint	result-comparator	test-result
CO[C@@]12Cc3ccc(cc3)O[C@H]3[C@H]([C@H]4C(=O)[C@](C[C@@H](O)[C@]4(C)C=O)(C1)C(=O)N2)[C@@H](C(C)=O)[C@]1(C)C[C@H](C)C[C@H](C)[C@@H]31	Staphylococcus aureus	MIC	>	100
CN[C@@H]1[C@@H](O)[C@@H](O[C@@H]2[C@@H](O)[C@H](O[C@H]3O[C@H](CN)CC[C@H]3N)[C@@H](N)C[C@H]2N)OC[C@]1(C)O.O=S(=O)(O)O	Staphylococcus aureus	MIC	=	5
C=C[C@@]1(C)C=C(C)[C@@H]2[C@@H]3[C@@H](Oc4ccc(cc4)C[C@@]4(O)C/C(=C(/O)[C@H]31)C(=O)N4)[C@@H]1[C@@H](C)C[C@@H](C)C[C@]12C	Staphylococcus aureus	MIC	=	20

* * *

tested on: Bacillus amyloliquefaciens; experiment: Antibacterial activity against Bacillus amyloliquefaciens GDMCC 60233 assessed as reduction in microbial growth after 12 hrs by microbroth dilution method; assay type: functional
reported-endpoint: MIC (µg/mL)

chemical-smiles	measured-on	result-comparator	test-result
CO[C@@]12Cc3ccc(cc3)O[C@H]3[C@@H]4[C@H]5C(=O)[C@](C[C@H](O)OO[C@@]5(C)[C@H]5O[C@@]5(C)[C@H]4[C@]4(C)C[C@H](C)C[C@H](C)[C@@H]34)(C1)C(=O)N2	Bacillus amyloliquefaciens	=	50
C[C@@H]1C[C@H](C)[C@H]2[C@H]3Oc4ccc(cc4)C[C@]4(O)C[C@]5(C[C@H](O)OO[C@@]6(C)[C@H]7O[C@@]7(C)[C@H]([C@H]3[C@H]6C5=O)[C@]2(C)C1)C(=O)N4	Bacillus amyloliquefaciens	=	50
CO[C@@H]1C2Cc3ccc(cc3)O[C@H]3[C@H]4[C@@H](C(C)=C[C@]5(C)CC[C@@]1(C(=O)N2)C(=O)[C@H]45)[C@]1(C)C[C@H](C)C[C@H](C)[C@@H]31	Bacillus amyloliquefaciens	>	100
CO[C@@H]1C2Cc3ccc(cc3)O[C@H]3[C@@H]4[C@H]5C(=O)[C@@]1(C[C@H](O)[C@@]5(C)C=C(C)[C@H]4[C@]1(C)C[C@H](C)C[C@H](C)[C@@H]31)C(=O)N2	Bacillus amyloliquefaciens	=	100
C[C@@H]1C[C@H](C)[C@H]2[C@H]3Oc4ccc(cc4)C[C@]4(O)C/C(=C(/O)[C@H]5[C@H](C)[C@H]6O[C@@]6(C)[C@H]([C@H]35)[C@]2(C)C1)C(=O)N4	Bacillus amyloliquefaciens	=	20
C=C[C@@]1(C)C=C(C)[C@@H]2[C@@H]3[C@@H](Oc4ccc(cc4)C[C@@]4(O)C/C(=C(/O)[C@H]31)C(=O)N4)[C@@H]1[C@@H](C)C[C@@H](C)C[C@]12C	Bacillus amyloliquefaciens	=	20
CC1=C[C@@]2(C)[C@@H]3C(=O)[C@@]4(C[C@@H]2O)C(=O)NC(Cc2ccc(cc2)O[C@H]2[C@H]3[C@@H]1[C@]1(C)C[C@H](C)C[C@H](C)[C@@H]21)[C@H]4O	Bacillus amyloliquefaciens	=	20

* * *

Listed molecules paired with reported pIC50
test system: NCI-H1975; assay: Cytotoxicity against human NCI-H1975 cells assessed as reduction in cell viability after 24 hrs by CCK8 assay; assay type: functional, cell-based; conditions: NCI-H1975, 24 h
pIC50: −log10 of the molar value.

chemical-smiles	pIC50
C[C@@H]1C[C@H](C)[C@H]2[C@H]3Oc4ccc(cc4)C[C@]4(O)C[C@]5(C[C@H](O)OO[C@@]6(C)[C@H]7O[C@@]7(C)[C@H]([C@H]3[C@H]6C5=O)[C@]2(C)C1)C(=O)N4	< 4.10
CC(=O)[C@@H]1[C@@H]2[C@H](Oc3ccc(cc3)C[C@]3(O)C[C@]4(C[C@@H](O)[C@](C)(C=O)[C@@H]2C4=O)C(=O)N3)[C@@H]2[C@@H](C)C[C@@H](C)C[C@]21C	< 4.10
CO[C@@]12Cc3ccc(cc3)O[C@H]3[C@@H]4[C@H]5C(=O)[C@](C[C@H](O)OO[C@@]5(C)[C@H]5O[C@@]5(C)[C@H]4[C@]4(C)C[C@H](C)C[C@H](C)[C@@H]34)(C1)C(=O)N2	< 4.10
